pIC50: −log10 of the molar value.
// each record: one item and its pIC50 for PKMYT1 (Homo sapiens, UniProt Q99640)
experimentalReadout: pIC50

1) NC(=O)c1nc2cccnc2c(-c2cccc3[nH]nc(F)c23)c1N (atropisomer, axis not shown) [Compound 304]
≤ 5.30
2) Cc1c(O)cccc1-c1c(N)c(C(N)=O)cc2nccnc12
> 7.30
3) Cc1c(O)cccc1-c1c(N)c(C(N)=O)cc2nc(C(F)(F)F)cnc12 [Compound 189]
6.30 to 7.30
4) NC(=O)c1nc2cccnc2c(-c2cccc3c2CCN3C=O)c1N
≤ 5.30
5) COc1nc2c(-c3cccc(O)c3C)c(N)c(C(N)=O)cc2nc1C (atropisomer, axis not shown) [Compound 224]
5.30 to 6.00
6) Cc1nc2cc(C(N)=O)c(N)c(-c3cccc(O)c3C)c2nc1C (single isomer, unassigned) [Compound 92]
> 7.30
7) Cc1c(O)cccc1-c1c(N)c(C(N)=O)cc2cccnc12 (single isomer, unassigned)
5.30 to 6.00
8) Cc1ccc(O)c(C)c1-c1c(N)c(C(N)=O)cc2nc(C)c(C)nc12
> 7.30
9) Cc1cc(O)cc(C)c1-c1cc(C(N)=O)nc2ccccc12
≤ 5.30
10) NC(=O)c1cc2nccnc2c(-c2cc(O)ccc2F)c1N
6.30 to 7.30
11) COc1ccnc2c(-c3cccc(O)c3C)c(N)c(C(N)=O)cc12
> 7.30
12) Cc1c(O)cccc1-c1c(N)c(C(N)=O)nc2cccnc12 (single isomer, unassigned) [Compound 4]
> 7.30
13) Cc1ccc2[nH]ncc2c1-c1c(N)c(C(N)=O)nc2cccnc12 (single isomer, unassigned) [Compound 8]
≤ 5.30
14) NC(=O)c1nc2cccnc2c(-c2c(F)ccc3[nH]ncc23)c1N (atropisomer, axis not shown)
≤ 5.30
15) Cc1ccc(O)c(C)c1-c1c(N)c(C(N)=O)nc2ccc(F)cc12 [Compound 20]
6.30 to 7.30
16) CCn1ccc2cc(C(N)=O)c(N)c(-c3cccc(O)c3C)c2c1=O (atropisomer, axis not shown) [Compound 329]
> 7.30

Values were extracted from patent US20260176270A1.
